Where do these numbers come from? They come from ChEMBL document CHEMBL1201862.

# measurement target: UniProtKB P35372
# Sequence (P35372 whole entry): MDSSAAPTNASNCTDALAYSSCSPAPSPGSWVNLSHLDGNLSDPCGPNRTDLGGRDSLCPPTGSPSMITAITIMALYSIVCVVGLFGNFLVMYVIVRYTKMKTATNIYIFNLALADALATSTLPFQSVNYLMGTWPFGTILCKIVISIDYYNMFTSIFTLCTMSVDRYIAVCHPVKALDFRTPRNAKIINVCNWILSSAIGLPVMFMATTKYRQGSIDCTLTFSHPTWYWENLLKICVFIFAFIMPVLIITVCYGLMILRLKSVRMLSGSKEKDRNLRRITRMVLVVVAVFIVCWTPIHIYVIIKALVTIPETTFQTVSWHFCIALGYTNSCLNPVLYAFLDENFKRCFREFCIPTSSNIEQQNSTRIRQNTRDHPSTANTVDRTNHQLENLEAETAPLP
# Assay type: functional, cell-based
Activity calls are given as the source filed them.
Listing of recorded EC50 by entry.

Examples from the recorded data:
>  <molecule>
COc1ccc(NC(=O)CSc2ccc(-c3ccccn3)nn2)cc1OC

>  <measured quantity>
EC50

>  <measured result>
92.4 µM (inactive)

$$$$
>  <molecule>
Cc1ccc(Nc2nc(N)nc(CN3CCN(c4ccccc4)CC3)n2)cc1Cl

>  <measured quantity>
EC50

>  <measured result>
92.5 µM (inactive)

$$$$
>  <molecule>
Fc1ccccc1CN1CCN(c2ncccn2)CC1

>  <measured quantity>
EC50

>  <measured result>
92.5 µM (inactive)

$$$$

Now look at this entry.
Fill blank: measured EC50 of the molecule COc1ccc(CC2(CO)CCN(C(C)COc3ccccc3)CC2)cc1 (centres undefined) is ____.
92.4 µM (inactive)
